Values were extracted from patent US20240034774A1.

target: HIV-1 envelope glycoprotein gp120 of virus VS001 (HIV-1); assay: cell-based or functional assay
Assign neutralization IC50 to each entry below.
Note to self: number, then unit, no commentary.

Could you report neutralization IC50 for every entry in the following list?
1. 2.3.17-1 (antibody, human IgG1, kappa, V domains shown) VH: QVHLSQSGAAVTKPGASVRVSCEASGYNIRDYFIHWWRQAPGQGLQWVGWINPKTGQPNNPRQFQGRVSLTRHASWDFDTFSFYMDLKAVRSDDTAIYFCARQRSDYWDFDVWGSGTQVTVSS VL: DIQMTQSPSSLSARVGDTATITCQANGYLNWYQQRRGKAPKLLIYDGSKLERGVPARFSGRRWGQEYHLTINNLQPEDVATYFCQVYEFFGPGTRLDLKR
2. 3.1.13-1 (antibody, human IgG1, kappa, V domains shown) VH: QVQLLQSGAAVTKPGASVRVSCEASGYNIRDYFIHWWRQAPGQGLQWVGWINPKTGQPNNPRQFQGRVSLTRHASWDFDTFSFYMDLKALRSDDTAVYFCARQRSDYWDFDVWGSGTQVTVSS VL: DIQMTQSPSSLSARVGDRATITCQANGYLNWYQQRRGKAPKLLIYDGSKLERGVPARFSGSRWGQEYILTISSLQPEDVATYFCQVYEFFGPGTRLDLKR
3. 1.1.118-1 (antibody, human IgG1, kappa, V domains shown) VH: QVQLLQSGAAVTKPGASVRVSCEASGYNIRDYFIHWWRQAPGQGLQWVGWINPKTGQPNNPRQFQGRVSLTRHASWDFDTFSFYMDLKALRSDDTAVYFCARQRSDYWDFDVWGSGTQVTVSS VL: DIQMTQSPSSLSASVGDRATITCQANGYLNWYQQRRGKAPKLLIYDGSKLERGVPSRFSGSRWGQEYILTISSLQPEDIATYFCQVYEFFGPGTRLDLKR
4. 3.1.7-1 (antibody, human IgG1, kappa, V domains shown) VH: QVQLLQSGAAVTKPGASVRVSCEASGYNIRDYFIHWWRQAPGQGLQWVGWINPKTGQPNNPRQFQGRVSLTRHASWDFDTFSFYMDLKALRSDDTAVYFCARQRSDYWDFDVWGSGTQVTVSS VL: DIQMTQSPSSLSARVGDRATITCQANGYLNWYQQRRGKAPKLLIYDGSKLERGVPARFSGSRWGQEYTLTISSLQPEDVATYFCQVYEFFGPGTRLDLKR

[out]
1. 4.54 µg/mL
2. 0.56 µg/mL
3. 2.4 µg/mL
4. 0.3 µg/mL
